Protocol notes: NCI Yeast Anticancer Drug Screen. Data for the wt1 strain (AID 149);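 also: 0% = growth of vehicle-treated wt1 cultures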
Measurement setup: S. cerevisiae wt1 strain (SPY 50644) growth inhibition; at 3.7 µM; hits give high values
This is part of a sample that, as a whole, favours compounds with a hit. Of some 79,000 tested, about 15% had one in any assay.
I'd be grateful if you could share measured growth inhibition for these entries.
Answers are plain numbers, in %.

Completed entries (count: 3):
{"columns": ["Compound", "Observable", "Observed measurement"],
 "data": [
  ["CN(C)CC1CCCc2ccccc2C1=O (stereo unspecified)", "growth inhibition", -11],
  ["CCCCCC(=O)c1ccc(O)cc1O", "growth inhibition", -18],
  ["O=C(/C=C/c1cccc(Br)c1)c1ccc(Cl)cc1", "growth inhibition", -44]
]}

Please go through the list and note growth inhibition for each compound.
1. CCc1[nH]nc(C(N)=O)c1N=NN(C)C
2. Nc1cc(S(N)(=O)=O)ccc1SSc1ccc(S(N)(=O)=O)cc1N
3. COc1ccc(/C=C2\SC(=S)N(C=C3C(=O)NC(=S)NC3=O)C2=O)cc1OC

[-4, -2, 6]
